Entry source: patent US11136348B2

The following compounds are shown together with reported Percent change in total protein at 3 µM values.
Test system: C2C12 skeletal myotubes
TEST_METHOD_NOTES: Total cellular protein content in C2C12 skeletal myotubes (BCA)
Assay type: cell-based, Mouse
MEASUREMENT_SETUP: Mus musculus, C2C12; 3 μM, 48 h incubation, vs vehicle (0.1% DMSO)
Lab book: enter the figure in %, no units written.

Lookup result for CC1=C(CC[C@H](C)CNC(=O)OCC(C)C)O[C@H]2C[C@H]3[C@@H]4CC[C@H]5C[C@@H](O)CC[C@]5(C)[C@H]4CC[C@]3(C)[C@@H]12 ; measured Percent change in total protein at 3 µM: 9

Percent change in total protein at 3 µM reported for this compound CC(=O)O[C@H]1CC[C@@]2(C)[C@@H](CC[C@@H]3[C@@H]2CC[C@@]2(C)[C@H]3C[C@@H]3OC(CC[C@H](C)CNC(=O)OC(C)(C)C)=C(C)[C@@H]32)C1 : 11.4

Record CC1=C(CC[C@H](C)CNC(C)C(F)F)O[C@H]2C[C@H]3[C@@H]4CC[C@H]5C[C@@H](O)CC[C@]5(C)[C@H]4CC[C@]3(C)[C@@H]12 (stereo partly drawn) , field Percent change in total protein at 3 µM: 6.9
